What Relative Activity (ratio of variant IC50/WT IC50), chromogenic thrombin inhibition assay was measured for each of the following?
# targetOrSystem: thrombin
# protocolText: cell-based or functional assay
API: value field is a number in ratio; no unit string.

(Q) May I ask what Relative Activity (ratio of variant IC50/WT IC50), chromogenic thrombin inhibition assay has been recorded for hirudin mutein M 74 (V40T) (other) VVYTDCTESGQNLCLCEGSVVCGQGNKCILGSDGEKNQCTTGEGTPKPESHNDGDFEEIPEEYLQ ?
(A) 1

(Q) Name the reported Relative Activity (ratio of variant IC50/WT IC50), chromogenic thrombin inhibition assay value associated with the binder hirudin mutein M 27 (I29S L30A) (other) VVYTDCTESGQNLCLCEGSVVCGQGNKCSAGSDGEKNQCVTGEGTPKPESHNDGDFEEIPEEYLQ
(A) 1.34

(Q) Could you tell me which Relative Activity (ratio of variant IC50/WT IC50), chromogenic thrombin inhibition assay is on file for hirudin mutein M 73 (V40A) (other) VVYTDCTESGQNLCLCEGSVVCGQGNKCILGSDGEKNQCATGEGTPKPESHNDGDFEEIPEEYLQ ?
(A) 1

(Q) Field request: Relative Activity (ratio of variant IC50/WT IC50), chromogenic thrombin inhibition assay | item: hirudin mutein M 66 (L30K) (other) VVYTDCTESGQNLCLCEGSVVCGQGNKCIKGSDGEKNQCVTGEGTPKPESHNDGDFEEIPEEYLQ
(A) 1

(Q) Quick one: Relative Activity (ratio of variant IC50/WT IC50), chromogenic thrombin inhibition assay of hirudin mutein M 13 (I29A L30Q) (other) VVYTDCTESGQNLCLCEGSVVCGQGNKCAQGSDGEKNQCVTGEGTPKPESHNDGDFEEIPEEYLQ ?
(A) 1.6

(Q) Would you mind telling me what Relative Activity (ratio of variant IC50/WT IC50), chromogenic thrombin inhibition assay value was observed for hirudin mutein M 11 (I29R L30R V40T) (other) VVYTDCTESGQNLCLCEGSVVCGQGNKCRRGSDGEKNQCTTGEGTPKPESHNDGDFEEIPEEYLQ ?
(A) 0.7

(Q) Please give the measured Relative Activity (ratio of variant IC50/WT IC50), chromogenic thrombin inhibition assay for this binder: hirudin mutein M 71 (L30S) (other) VVYTDCTESGQNLCLCEGSVVCGQGNKCISGSDGEKNQCVTGEGTPKPESHNDGDFEEIPEEYLQ
(A) 1.83

(Q) Sample hirudin mutein M 30 (I29S L30R) (other) VVYTDCTESGQNLCLCEGSVVCGQGNKCSRGSDGEKNQCVTGEGTPKPESHNDGDFEEIPEEYLQ — what was its Relative Activity (ratio of variant IC50/WT IC50), chromogenic thrombin inhibition assay?
(A) 2.5

(Q) Which Relative Activity (ratio of variant IC50/WT IC50), chromogenic thrombin inhibition assay is reported for this binder? hirudin mutein M 38 (L15A) (other) VVYTDCTESGQNLCACEGSVVCGQGNKCILGSDGEKNQCVTGEGTPKPESHNDGDFEEIPEEYLQ
(A) 0.9

(Q) Item hirudin mutein M 46 (V21N) (other) VVYTDCTESGQNLCLCEGSVNCGQGNKCILGSDGEKNQCVTGEGTPKPESHNDGDFEEIPEEYLQ has what recorded Relative Activity (ratio of variant IC50/WT IC50), chromogenic thrombin inhibition assay?
(A) 0.83

Data credit: patent US20060140929A1
